Molecular target: Dual specificity mitogen-activated protein kinase kinase 1 (Homo sapiens, UniProt Q02750)
Sequence (Q02750 whole entry): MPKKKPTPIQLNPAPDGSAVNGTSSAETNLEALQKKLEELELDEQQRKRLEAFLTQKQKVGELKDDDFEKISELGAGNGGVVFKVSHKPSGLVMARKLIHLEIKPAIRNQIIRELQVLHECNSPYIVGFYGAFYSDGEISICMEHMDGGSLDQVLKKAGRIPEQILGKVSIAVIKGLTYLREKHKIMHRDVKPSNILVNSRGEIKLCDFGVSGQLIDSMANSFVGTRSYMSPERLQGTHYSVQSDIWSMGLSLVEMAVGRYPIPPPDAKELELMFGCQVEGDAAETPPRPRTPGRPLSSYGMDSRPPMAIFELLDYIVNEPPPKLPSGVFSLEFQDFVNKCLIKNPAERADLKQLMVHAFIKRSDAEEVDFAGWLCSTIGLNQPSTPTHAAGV
Experiment: Inhibition of MEK1 (unknown origin) autophosphorylation incubated with enzyme for 20 mins prior to ATP addition by ADP Glo kinase assay in presence of ATP at Km concentration
Parameter: IC50

C=CC(=O)Nc1ccccc1Nc1nc(NC2CCOCC2)ncc1Cl : > 10 µM

Lookup: Quickly give me recorded IC50 for C=CC(=O)Nc1ccccc1Nc1nc(Nc2ccnn2C)ncc1Cl
Found: 0.12 µM

Lookup: Give recorded IC50. CNC(=O)c1ccccc1Nc1cc(NC2CCOCC2)ncc1Cl
Found: > 10 µM

Lookup: Report IC50 for C=CC(=O)Nc1ccccc1Nc1nc(NC2CCOCC2)ncc1C(F)(F)F
Found: > 10 µM

* * *

Tested on: Hepatocyte
Test: Intrinsic clearance in rat hepatocytes
Assay type: ADME, cell-based
Values of CLH greater than or equal to 200 µL/min/mg map to rule met; values below map to rule not met.

Solved entries:
C=CC(=O)Nc1ccccc1Nc1nc(Nc2ccnn2C)ncc1C : rule not met
C=CC(=O)Nc1ccccc1Nc1cc(NC2CCOCC2)ncc1Cl : rule met
C=CC(=O)Nc1ccccc1Nc1nc(NC2CCOCC2)ncc1C(F)(F)F : rule met
C=CC(=O)Nc1ccccc1Nc1nc(N[C@H]2CC[C@H](N(C)C)CC2)ncc1Cl : rule not met
C=CC(=O)Nc1ccccc1Nc1nc(NC2CCOCC2)ncc1C : rule not met

Lookup: Assess whether reported CLH for C=CC(=O)Nc1cnccc1Nc1nc(NC2CCOCC2)ncc1Cl sits at 200 µL/min/mg or higher.
Found: rule met

Lookup: Could you please find out whether C=CC(=O)Nc1ccccc1Nc1nc(Nc2ccnn2C)ncc1Cl has CLH that meets 200 µL/min/mg or exceeds it?
Found: rule not met

* * *

Target: Mitogen-activated protein kinase 1 (Homo sapiens)
Experiment: Inhibition of ERK2 in human A375 cells harboring B-RAF V600E mutant assessed as decrease in phospho-ERK2 level after 2 hrs by Cellomics ArrayScanTM VTI imaging analysis
Format: cell-based, A-375
Parameter: log10 IC50 (log10 of the value in nM)
Give log10 of IC50, with IC50 taken in nM.

Lookup: Tell me log10 IC50 reported for C=CC(=O)Nc1cnccc1Nc1nc(NC2CCOCC2)ncc1Cl
Found: 0.83

Lookup: Specify measured log10 IC50 for COc1cc(O)c2c(c1)/C=C/C[C@H](O)[C@@H](O)C(=O)/C=C/C[C@H](C)OC2=O .
Found: 3.20

Lookup: Quote log10 IC50 reported for CCS(=O)(=O)Nc1ccc2[nH]nc(-c3ccncc3)c2c1 please.
Found: 4.00

Lookup: Determine from records and report log10 IC50 for C=CS(=O)(=O)N1CCc2[nH]nc(-c3ccnc(C)c3)c2C1
Found: 2.58

Lookup: Find the measured log10 IC50 of CNC(=O)c1ccccc1Nc1cc(NC2CCOCC2)ncc1Cl and report it.
Found: 3.88

Lookup: Tell me measured log10 IC50 for CNC(=O)c1ccc(F)cc1Nc1cc(NC2CCOCC2)ncc1C(F)(F)F please.
Found: 3.32

Lookup: Query log10 IC50 for C=CC(=O)Nc1ccccc1Nc1nc(Nc2ccnn2C)ncc1Cl
Found: 1.68

Lookup: Please look at this compound and report its log10 IC50: C=CC(=O)Nc1ccccc1Nc1nc(NC2CCOCC2)ncc1Cl
Found: 1.28

* * *

Molecular target: Mitogen-activated protein kinase 1 (Homo sapiens)
Experiment: Inhibition of MEK U911-activated ERK2 (unknown origin) using Erktide as substrate preincubated with enzyme for 20 mins prior to substrate addition by RapidFire Mass Spectrometry in presence of ATP at higher concentration
Parameter: pIC50
Remember, pIC50 is on a log scale: it is -log10 of the molar concentration.

C=CC(=O)Nc1ccccc1Nc1nc(Nc2ccnn2C)ncc1C : 7.33

Lookup: Fill in pIC50 for record C=CC(=O)Nc1ccccc1Nc1nc(NC2CCOCC2)ncc1C(F)(F)F
Found: 8.07

Lookup: Specify reported pIC50 for the compound shown: C=CC(=O)Nc1cnccc1Nc1nc(NC2CCOCC2)ncc1Cl
Found: 8.52

Lookup: Dear colleague, please send me the reported pIC50 for C=CS(=O)(=O)N1CCc2[nH]nc(-c3ccnc(C)c3)c2C1 when you can.
Found: 6.96

Lookup: Let me know recorded pIC50 for CCC(=O)Nc1ccccc1Nc1nc(NC2CCOCC2)ncc1Cl , thanks.
Found: 5.40

Lookup: Fill in reported pIC50 for this entry: C=CC(=O)Nc1ccccc1Nc1nc(NC2CCOCC2)ncc1C
Found: 7.06
